Would you kindly list self-cleavage for each of these variants?
B1: HDV Ribozyme (parent)
chain: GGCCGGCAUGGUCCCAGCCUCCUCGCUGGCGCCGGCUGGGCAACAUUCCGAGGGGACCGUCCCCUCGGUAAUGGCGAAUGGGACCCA

Variants of: B1
measurement protocol: self-cleavage, relative activity (ratio to wild type); higher = more cleavage; co-transcriptional
Give bare numbers.

>>> print(df.to_string())
   mutation_annotation  experimental_result
0            C22U U65C                 0.78
1            G40A A45G                0.815
2            G11A U27A                0.815

For the next question, use this variant.
Please report the recorded self-cleavage for G1U .
0.391
